Test: chemical genetic growth profiling, strain panel (AID 1159580);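 further: tested at 20 µM; growth read once vehicle control cultures reached saturation at 30 °C; lower values mean less growth of the strain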
Details: S. cerevisiae deletion strains, growth OD, locus YHR027C, strain rpn1
Hit rate of the full screen: of about 5,500 compounds, about 2,000 (36%) were called active. About 18% were inconclusive and are not listed. No stated cut-off is given here; in the data, active means normalized growth mostly below about 0.91 (no sharp cut-off); inconclusive means no clear call, values can overlap the other calls; inactive means mostly above about 0.92. The list shows a part of the results. Where a SMILES comes first, the peptide text is derived from it. Bridges are numbered along the chain shown (N, C = ends). [ ]: non-standard residue; d: D form. The star is where a group is joined. ξ: configuration not given here. ξDab(CH2SO3H) = NC(CCNCS(=O)(=O)O)C(=O)O; Heptanoyl(6-Me) = CC(C)CCCCC(=O)*; Dab = NCC[CH](N)C(=O)O
Valid outcomes are listed here; reply with one: active, inactive

Exercise: GET /call?item= C/C=C(/C)C(=O)O[C@@H]1[C@H](OC(C)=O)[C@@]2(CO)C(CC1(C)C)C1=CCC3[C@@]4(C)CC[C@H](O[C@@H]5O[C@H](C(=O)O)[C@@H](O[C@@H]6O[C@H](CO)[C@@H](O)[C@H](O)[C@H]6O)[C@H](O)[C@H]5O[C@@H]5O[C@H](CO)[C@@H](O)[C@H](O)[C@H]5O)[C@](C)(CO)C4CC[C@@]3(C)[C@]1(C)C[C@H]2O (stereo partly specified) returns the recorded outcome of this test.
Solution: inactive

Exercise: Answer briefly: the call reported for CCOC(=O)OC(C)OC(=O)C1N2C(=O)C(NC(=O)[C@H](N)c3ccccc3)C2SC1(C)C (stereo partly specified) in this assay.
Solution: inactive

Exercise: Could you check what this test reported for CCC(C)C(NC)C(=O)O (stereo unspecified) ?
Solution: inactive

Exercise: Which result was noted for this compound in the test: CCN1C[C@]2(OC(=O)c3ccccc3NC(C)=O)CCC(OC)[C@]34C1[C@H](CC23)[C@@]1(O)CC(OC)[C@H]2CC4C1(O)[C@H]2OC (stereo partly specified)
Solution: inactive

Exercise: // outcome(item) with item = CC1(C)CC[C@]2(C(=O)O)CC[C@]3(C)C(=CCC4[C@@]5(C)CC[C@H](O)[C@@](C)(CO)C5CC[C@]43C)C2C1 (stereo partly specified)
Solution: inactive

Exercise: Please indicate how the test categorized NC(Cc1c[nH]c2ccccc12)C(=O)O (stereo unspecified) .
Solution: inactive

Exercise: Hello, I am checking results. What call was entered for CCC(C)C1NC(=O)C(CCNCS(=O)(=O)O)NC(=O)C(NC(=O)C(CCNCS(=O)(=O)O)NC(=O)C(NC(=O)C(CCNCS(=O)(=O)O)NC(=O)CCCCC(C)C)C(C)O)CCNC(=O)C(C(C)O)NC(=O)C(CCNCS(=O)(=O)O)NC(=O)C(CCNCS(=O)(=O)O)NC(=O)C(C(C)CC)NC1=O (stereo unspecified) ({Heptanoyl(6-Me)}-[ξDab(CH2SO3H)]T[ξDab(CH2SO3H)][Dab][ξDab(CH2SO3H)]II[ξDab(CH2SO3H)][ξDab(CH2SO3H)]T; lactam 4-C; configuration not given here) ?
Solution: inactive

Exercise: Called result for `Cc1ccc(-c2cc(C(F)(F)F)nn2-c2ccc(S(N)(=O)=O)cc2)cc1`
Solution: inactive

Exercise: Please let me know the test result on file for `Cc1cc(O)cc(O)c1C(=O)O` .
Solution: inactive

Exercise: Answer briefly: the call reported for `CC1=NS(=O)(=O)c2cc(Cl)ccc2N1` in this assay.
Solution: inactive

Exercise: Record lookup: outcome of this test for COc1c(-c2coc3cc4c(cc3c2=O)CC(O)C(C)(C)O4)ccc2c1C=CC(C)(C)O2 (stereo unspecified) ?
Solution: inactive

Exercise: Fill in: this test's call for `Cc1cc(-n2c(=O)[nH]c(=O)n(C)c2=O)ccc1Oc1ccc(SC(F)(F)F)cc1` is ___
Solution: inactive

Exercise: Per the assay record, what outcome was assigned to `O=C(CNC(=O)c1ccc(Cl)cc1)NO` ?
Solution: inactive

Exercise: Record lookup: outcome of this test for CC(C)CCCC1(C)C=Cc2c(O)c3c(c(CCC(C)C)c2O1)OC12C(CC4CC1C(C)(C)OC2(CCC(C)C(=O)O)C4O)C3=O (stereo unspecified) ?
Solution: inactive

Exercise: Would you mind telling me which call this test gave `O=c1[nH]cc(F)c(=O)[nH]1` ?
Solution: active

Exercise: Hi team, can someone confirm the assay call for OC(CCN1CCCCC1)(c1ccccc1)C1CCCCC1 (stereo unspecified) ?
Solution: inactive

Exercise: Short answer needed: outcome of this test for `Clc1ccccc1C(c1ccccc1)(c1ccccc1)n1ccnc1` ?
Solution: active

Exercise: Which result was noted for this compound in the test: `NC(N)=N/N=C/c1c(Cl)cccc1Cl`
Solution: inactive

Exercise: // return assay outcome for CC(=O)O[C@@H]1CC[C@@]2(C)C(CC[C@]3(C)C2CC=C2C4CC(C)(C)CC[C@]4(C(=O)O)CC[C@]23C)C1(C)C (stereo partly specified)
Solution: active

Exercise: Which outcome was entered for the compound OC(CCN1CCCC1)(c1ccccc1)C1CCCCC1 (stereo unspecified) in this test?
Solution: inactive

Exercise: Test call, this compound: `O=c1ccc2ccc(O)cc2o1`
Solution: inactive

Exercise: Please state the recorded outcome for this compound: `FC(F)(F)c1ccccc1-n1ccnc1`
Solution: inactive

Exercise: Called result for `CC(=O)NCc1c(I)c(NC(C)=O)c(I)c(C(=O)O)c1I`
Solution: inactive

Exercise: Please share the test call associated with C[C@H]1[C@H](C)CC[C@]2(CO)CC[C@]3(C)C(=CCC4[C@@]5(C)CC[C@H](O)C(C)(C)C5CC[C@]43C)[C@H]12 (stereo partly specified) .
Solution: inactive

Exercise: I would be grateful if you could indicate the recorded call for CC1OC(=O)C(C(C)C)NC(=O)C(C(C)C)OC(=O)C(C(C)C)NC(=O)C(C)OC(=O)C(C(C)C)NC(=O)C(C(C)C)OC(=O)C(C(C)C)NC(=O)C(C)OC(=O)C(C(C)C)NC(=O)C(C(C)C)OC(=O)C(C(C)C)NC1=O (stereo unspecified) .
Solution: active

Exercise: Called result for C[C@@H]1CC[C@]2(C(=O)O)CC[C@]3(C)C(=CCC4[C@@]5(C)CC[C@H](O)C(C)(C)C5CC[C@]43C)C2[C@H]1C (stereo partly specified)
Solution: inactive
